Item-by-item account of protein stability index
B1: VAMP4 (parent)
chain: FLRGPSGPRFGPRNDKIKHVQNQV

Variants of: B1
Test: protein stability index of a GFP-peptide fusion (GPS, HEK-293T) (PSI 1-6); higher = more stable;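 also: lentivirally expressed fusions sorted by FACS into six bins by GFP to DsRed ratio, PSI derived from sequencing read proportions per bin multiplied by bin number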
Conditions: c terminus: a fixed tail appended
Please give the numeric answer without any surrounding text.

Example results:
mutation_notation: I17N
protein stability index: 3.54
--
mutation_notation: Q21N
protein stability index: 3.59
--
mutation_notation: F10E
protein stability index: 3.29

Noted for N22G : its protein stability index reads 2.77

Noted for S6C : its protein stability index reads 2.03

Noted for S6V : its protein stability index reads 2.12

Noted for F1A : its protein stability index reads 3.87

Noted for G4R : its protein stability index reads 3.22

Noted for V20K : its protein stability index reads 3.23

Noted for G4E : its protein stability index reads 3.17

Noted for N22E : its protein stability index reads 3.94
